Catalogue of pIC50 readings, one per entry.
biological target: human α4β7 integrin (Homo sapiens, UniProt P13612+P26010); construct: expressed in transfected cells; host or cells: K562 cells, stably transfected; assay: α4β7-K562 Cell Adhesion Assay (α4β7 Mediated Adhesion/MAdCAM-1); assay type: cell-based
Sequence (P13612 34-1032): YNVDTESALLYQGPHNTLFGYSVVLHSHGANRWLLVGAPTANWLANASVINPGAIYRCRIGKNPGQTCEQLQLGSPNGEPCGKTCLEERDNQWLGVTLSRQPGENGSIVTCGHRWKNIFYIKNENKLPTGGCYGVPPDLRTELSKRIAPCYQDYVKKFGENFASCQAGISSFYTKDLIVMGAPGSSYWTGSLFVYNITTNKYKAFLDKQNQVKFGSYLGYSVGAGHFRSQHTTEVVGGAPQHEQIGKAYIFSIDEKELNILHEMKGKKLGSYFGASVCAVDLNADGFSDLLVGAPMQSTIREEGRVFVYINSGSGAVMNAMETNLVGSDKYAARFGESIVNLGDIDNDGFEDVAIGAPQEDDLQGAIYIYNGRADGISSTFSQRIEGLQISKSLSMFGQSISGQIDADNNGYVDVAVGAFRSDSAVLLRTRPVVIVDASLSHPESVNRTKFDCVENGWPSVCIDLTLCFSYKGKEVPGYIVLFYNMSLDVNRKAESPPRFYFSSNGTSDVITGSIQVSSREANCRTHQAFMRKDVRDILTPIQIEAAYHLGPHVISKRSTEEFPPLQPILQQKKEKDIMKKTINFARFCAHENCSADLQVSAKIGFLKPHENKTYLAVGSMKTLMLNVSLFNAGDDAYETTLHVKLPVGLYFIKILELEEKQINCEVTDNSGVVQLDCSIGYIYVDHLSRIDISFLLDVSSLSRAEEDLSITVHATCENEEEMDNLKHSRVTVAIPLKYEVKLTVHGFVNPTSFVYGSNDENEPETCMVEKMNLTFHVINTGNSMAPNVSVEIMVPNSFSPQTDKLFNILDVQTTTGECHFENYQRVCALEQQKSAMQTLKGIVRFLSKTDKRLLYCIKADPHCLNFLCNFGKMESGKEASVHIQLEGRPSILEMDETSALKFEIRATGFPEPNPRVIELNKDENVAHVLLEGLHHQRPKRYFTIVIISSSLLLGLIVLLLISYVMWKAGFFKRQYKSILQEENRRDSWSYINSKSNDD
Sequence (P26010 20-798): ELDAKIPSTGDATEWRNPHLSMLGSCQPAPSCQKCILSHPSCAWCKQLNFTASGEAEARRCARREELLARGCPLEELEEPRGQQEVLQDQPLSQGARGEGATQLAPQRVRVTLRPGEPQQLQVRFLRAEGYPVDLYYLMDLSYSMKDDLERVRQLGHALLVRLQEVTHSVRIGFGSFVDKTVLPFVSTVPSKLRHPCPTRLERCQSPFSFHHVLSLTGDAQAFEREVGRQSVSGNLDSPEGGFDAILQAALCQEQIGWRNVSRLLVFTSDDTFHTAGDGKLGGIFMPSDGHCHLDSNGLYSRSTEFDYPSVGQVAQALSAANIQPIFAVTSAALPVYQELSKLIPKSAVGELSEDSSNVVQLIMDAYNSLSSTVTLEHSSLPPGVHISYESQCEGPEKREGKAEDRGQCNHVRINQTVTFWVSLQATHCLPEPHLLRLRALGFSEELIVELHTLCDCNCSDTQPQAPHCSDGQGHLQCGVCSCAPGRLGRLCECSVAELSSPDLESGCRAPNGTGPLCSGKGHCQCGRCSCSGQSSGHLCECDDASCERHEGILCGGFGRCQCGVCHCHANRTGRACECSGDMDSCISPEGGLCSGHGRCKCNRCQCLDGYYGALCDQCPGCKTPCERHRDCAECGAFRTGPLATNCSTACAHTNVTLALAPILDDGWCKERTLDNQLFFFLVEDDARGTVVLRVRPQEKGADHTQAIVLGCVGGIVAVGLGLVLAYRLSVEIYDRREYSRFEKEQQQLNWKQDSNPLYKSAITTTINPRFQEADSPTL
Hey, just a heads up that pIC50 is the negative log base 10 of the concentration in molar.

compound="CN(C)C(=O)Oc1ccc(C[C@H](NC(=O)C2CCCc3nnc(Cc4ccccc4)n32)C(=O)O)cc1 (stereo partly drawn)" assayed_system="human α4β7 integrin (Homo sapiens, UniProt P13612+P26010)" reading=5.78

Lab note: next compound to report on.
Form: item CN(C)C(=O)Oc1ccc(C[C@H](NC(=O)C2CCCc3nnc(-c4ccccc4)n32)C(=O)O)cc1 (stereo partly drawn) ; test system human α4β7 integrin (Homo sapiens, UniProt P13612+P26010); pIC50: 5.91
